Molecular target: hAM2 receptor (CALCRL:RAMP3) (Homo sapiens, UniProt O60896+Q16602)
Construct: expressed in transfected cells; host or cells: GeneBLAzer CALCRL:RAMP3-CRE-bla Freestyle 293F
Sequence (Q16602 23-461): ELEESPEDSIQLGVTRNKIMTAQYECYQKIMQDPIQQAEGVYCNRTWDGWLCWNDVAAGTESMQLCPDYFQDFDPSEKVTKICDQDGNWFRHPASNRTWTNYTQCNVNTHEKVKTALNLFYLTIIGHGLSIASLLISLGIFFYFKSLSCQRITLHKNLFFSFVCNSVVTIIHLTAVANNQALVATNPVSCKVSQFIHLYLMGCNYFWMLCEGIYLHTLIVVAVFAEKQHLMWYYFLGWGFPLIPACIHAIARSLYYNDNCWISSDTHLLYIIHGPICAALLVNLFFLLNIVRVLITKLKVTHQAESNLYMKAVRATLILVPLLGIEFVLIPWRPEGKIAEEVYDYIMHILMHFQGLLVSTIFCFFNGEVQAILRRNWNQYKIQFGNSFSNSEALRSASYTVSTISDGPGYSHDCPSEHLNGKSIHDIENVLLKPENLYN
Sequence (O60896 24-148): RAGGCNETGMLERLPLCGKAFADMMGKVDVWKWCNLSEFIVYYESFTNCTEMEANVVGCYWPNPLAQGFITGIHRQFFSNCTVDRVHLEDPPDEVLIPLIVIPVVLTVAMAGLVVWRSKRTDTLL
Test: AM2 receptor antagonist activity measured by cAMP assay (HTRF)
Type: cell-based
Settings: % MPE: percent of the maximal possible effect; agonist human adrenomedullin; read-out: hAM2-R Efficacy Antag (%) Ave
Bridge positions count the residues as written; N and C are the ends. Square brackets hold non-standard residues; d marks the D form. Peptide text beside a SMILES is read from it. * marks the point of attachment. Phe(3-CONH2) = NC(=O)c1cccc(C[C@H](N)C(=O)O)c1; Phe(2-CONH2) = NC(=O)c1ccccc1C[C@H](N)C(=O)O; Phe(4-NH2) = Nc1ccc(C[C@H](N)C(=O)O)cc1; Picolinoyl(5-F) = O=C(c1ccc(F)cn1)*; Orn(iPr) = CC(C)NCCC[C@H](N)C(=O)O; Benzoyl(4-F) = O=C(c1ccc(F)cc1)*; Oxazole2carbonyl = O=C(c1ncco1)*; 3Pal = N[C@@H](Cc1cccnc1)C(=O)O; ΔPro = O=C(O)[C@@H]1C=CCN1; Dap = NC[C@H](N)C(=O)O
Readout Kind: Emax (%)
Please respond with the number in % and leave the unit unwritten.

Look over these answered cases.
1. CC(C)NCCC[C@@H]1NC(=O)[C@@H](NC(=O)[C@H](Cc2ccc(O)cc2)NC(=O)[C@H](NC(=O)c2ccc(F)cn2)C(C)C)CSSC[C@@H](C(=O)N[C@@H](Cc2cccnc2)C(N)=O)NC(=O)[C@H](Cc2cccc(C(N)=O)c2)NC(=O)[C@@H]2C=CCN2C(=O)CNC(=O)[C@H](C(C)C)NC(=O)[C@H](CC(=O)O)NC1=O [Compound 68] ({Picolinoyl(5-F)}-[dV]YC[Orn(iPr)]DVG[ΔPro][Phe(3-CONH2)]C[3Pal]-NH2; disulfide 3-10): 100
2. CC(C)[C@@H]1NC(=O)[C@H](CC(=O)O)NC(=O)[C@H](CN)NC(=O)[C@@H](NC(=O)[C@H](Cc2ccc(O)cc2)NC(=O)[C@H](NC(=O)c2ccc(F)cc2)C(C)C)CSSC[C@@H](C(=O)N[C@@H](Cc2cccnc2)C(N)=O)NC(=O)[C@H](Cc2ccc(O)cc2)NC(=O)[C@@H]2CCCN2C(=O)CNC1=O [Compound 7] ({Benzoyl(4-F)}-[dV]YC[Dap]DVGPYC[3Pal]-NH2; disulfide 3-10): 100

Give Emax (hAM2 receptor (CALCRL:RAMP3) (Homo sapiens, UniProt O60896+Q16602)) of the following molecule: CC(C)NCCC[C@@H]1NC(=O)[C@@H](NC(=O)[C@H](Cc2ccccc2C(N)=O)NC(=O)[C@H](NC(=O)c2ncco2)C(C)C)CSSC[C@@H](C(=O)N[C@@H](Cc2cccnc2)C(N)=O)NC(=O)[C@H](Cc2ccc(N)cc2)NC(=O)[C@@H]2C=CCN2C(=O)CNC(=O)[C@H](C(C)C)NC(=O)[C@H](CC(=O)O)NC1=O [Compound 59] (Oxazole2carbonyl-[dV][Phe(2-CONH2)]C[Orn(iPr)]DVG[ΔPro][Phe(4-NH2)]C[3Pal]-NH2; disulfide 3-10) 99

====

Biological target: hAM2 receptor (CALCRL:RAMP3) (Homo sapiens, UniProt O60896+Q16602)
Construct: expressed in transfected cells; host or cells: GeneBLAzer CALCRL:RAMP3-CRE-bla Freestyle 293F
Test: AM2 receptor antagonist activity measured by cAMP assay (HTRF)
Type: cell-based
Conditions: GeneBLAzer CALCRL:RAMP3-CRE-bla Freestyle 293F cells; agonist human adrenomedullin; read-out: hAM2-R IC50 Ave
Numbered stars: 1 amine (or outer) side, 2 acyl side, 3 side chain; on linkers, the order of the positions; unused ones are H or OH. Bridge positions count the residues as written; N and C are the ends. Square brackets hold non-standard residues; d marks the D form. Peptide text beside a SMILES is read from it. * marks the point of attachment. Phe(2-CONH2) = NC(=O)c1ccccc1C[C@H](N)C(=O)O; X3 = NCc1ccccc1C[C@H](N[*:1])C(=O)[*:2]; Benzoyl(4-F) = O=C(c1ccc(F)cc1)*; 3Pal = N[C@@H](Cc1cccnc1)C(=O)O; X2 = Cc1n[nH]c(C(=O)*)n1; X6 = O=C(c1ccncn1)*
Readout Kind: pIC50
Conceptually, pIC50 converts a concentration in mol/L into minus its log10.

Example cases with answers are listed next.
1. CC(C)[C@@H]1NC(=O)[C@H](CC(=O)O)NC(=O)[C@H](CCCNC(=N)N)NC(=O)[C@@H](NC(=O)[C@H](Cc2ccc(O)cc2)NC(=O)[C@H](NC(=O)c2ccncn2)C(C)C)CSSC[C@@H](C(=O)N[C@@H](Cc2cccnc2)C(N)=O)NC(=O)[C@H](Cc2ccccc2)NC(=O)[C@@H]2CCCN2C(=O)CNC1=O [Compound 16] (X6-[dV]YCRDVGPFC[3Pal]-NH2; disulfide 3-10): 8.17
2. Cc1n[nH]c(C(=O)N[C@@H](C(=O)N[C@@H](Cc2ccc(O)cc2)C(=O)N[C@H]2CSSC[C@@H](C(=O)N[C@@H](Cc3cccnc3)C(N)=O)NC(=O)[C@H](Cc3ccccc3CN)NC(=O)[C@@H]3CCCN3C(=O)CNC(=O)[C@H](C(C)C)NC(=O)[C@H](CC(=O)O)NC(=O)[C@H](CCCNC(=N)N)NC2=O)C(C)C)n1 [Compound 53] (X2-[dV]YCRDVGP[X3]C[3Pal]-NH2; disulfide 3-10): 6.05

Give the reported pIC50 for CC(C)[C@@H]1NC(=O)[C@H](CC(=O)O)NC(=O)[C@H](CCCNC(=N)N)NC(=O)[C@@H](NC(=O)[C@H](Cc2ccccc2C(N)=O)NC(=O)[C@H](NC(=O)c2ccc(F)cc2)C(C)C)CSSC[C@@H](C(=O)N[C@@H](Cc2cccnc2)C(N)=O)NC(=O)[C@H](Cc2ccccc2)NC(=O)[C@@H]2CCCN2C(=O)CNC1=O [Compound 15] ({Benzoyl(4-F)}-[dV][Phe(2-CONH2)]CRDVGPFC[3Pal]-NH2; disulfide 3-10) (system: hAM2 receptor (CALCRL:RAMP3) (Homo sapiens, UniProt O60896+Q16602)). 7.24
